System Under Test: T1, TCR gamma/delta constant region (TRGDC) (human, UniProt P0CF51 1-173; B7Z8K6 1-153)
T1 chain (looked up) 1: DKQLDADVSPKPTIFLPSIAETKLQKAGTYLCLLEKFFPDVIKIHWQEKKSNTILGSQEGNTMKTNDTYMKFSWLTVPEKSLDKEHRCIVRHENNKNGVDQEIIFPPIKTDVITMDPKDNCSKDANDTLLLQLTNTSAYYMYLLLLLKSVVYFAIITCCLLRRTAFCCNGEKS
T1 chain (looked up) 2: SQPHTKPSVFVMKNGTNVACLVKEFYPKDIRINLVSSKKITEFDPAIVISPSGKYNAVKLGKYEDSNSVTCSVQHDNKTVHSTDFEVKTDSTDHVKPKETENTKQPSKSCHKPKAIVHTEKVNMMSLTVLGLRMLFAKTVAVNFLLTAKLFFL
Test Description: cell-based or functional assay
Below, each entry is listed alongside its reported TNFα; Luninex (supernatant).
Form: value (number only, do not type unit).

Here's what some known entries look like.
VG9B387 (antibody, human IgG1, lambda, V domains shown) VH: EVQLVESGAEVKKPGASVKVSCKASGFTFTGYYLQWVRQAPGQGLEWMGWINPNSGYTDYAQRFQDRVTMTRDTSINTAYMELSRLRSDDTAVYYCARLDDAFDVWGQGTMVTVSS VL: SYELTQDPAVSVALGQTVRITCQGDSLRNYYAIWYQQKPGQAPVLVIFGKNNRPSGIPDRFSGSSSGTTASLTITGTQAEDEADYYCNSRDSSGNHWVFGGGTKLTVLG ... 135
VG9B112 (antibody, human IgG1, kappa, V domains shown) VH: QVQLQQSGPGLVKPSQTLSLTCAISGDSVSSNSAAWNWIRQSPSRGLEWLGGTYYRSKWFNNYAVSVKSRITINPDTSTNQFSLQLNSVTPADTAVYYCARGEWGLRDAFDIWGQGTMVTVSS VL: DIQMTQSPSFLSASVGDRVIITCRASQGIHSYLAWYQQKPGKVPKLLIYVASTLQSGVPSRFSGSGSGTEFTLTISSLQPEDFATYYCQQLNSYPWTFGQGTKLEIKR ... 1260

# TNFα; Luninex (supernatant) of VG9B136 (antibody, human IgG1, kappa, V domains shown) VH: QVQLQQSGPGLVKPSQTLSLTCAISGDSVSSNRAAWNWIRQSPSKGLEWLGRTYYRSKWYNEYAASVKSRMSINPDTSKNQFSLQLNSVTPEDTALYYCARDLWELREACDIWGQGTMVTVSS VL: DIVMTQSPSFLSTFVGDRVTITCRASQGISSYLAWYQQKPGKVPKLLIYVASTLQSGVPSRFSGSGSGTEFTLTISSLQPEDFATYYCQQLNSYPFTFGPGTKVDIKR = 192

Lab note: VG9B125 (antibody, human IgG1, kappa, V domains shown) VH: EVQLVESGGTLVQPGGSLRLSCAVSGFTFSSYDMNWVRQAPGKGLEWVSYISSSSTAKYYADSVKGRFTISRDNAKNSLYLQMNSLWDEDTAVYYCAREDIVVVTPILQHWGQGTTVTVSS VL: EIVMTQSPATLSLSPGERAILSCRASQSVSKDLAWYQQKPGQAPRLLIYDASNRATGIPARISGSGSGTDFTLTISSLEPEDFAVYYCQQRINWPLFTFGPGTKVEIKR gave TNFα; Luninex (supernatant) of 959

// provenance: patent US20220125947A1
